Collected set of IC50 measured with TGF-beta receptor type-1 (Homo sapiens) across studies.
Only the number, expressed in nM, is required.

Worked examples, 5 compounds total:
# COMPOUND, OUTPUT_UNIT, IC50
records = [
    ("CC(C)N1C[C@H]2C[C@@]2(c2ccc(-c3cnc(N)c(C(=O)NC45CC(CO)(C4)C5)c3)cc2)C1", "nM", 10000),
    ("CC(C)(O)c1cc(Nc2cc(Oc3cc(C(F)(F)F)nn3-c3cccc(Cl)c3)ccn2)ccn1", "nM", 56),
    ("C[C@H](O)CNC(=O)c1cnccc1Nc1nc(-c2cc(Cl)ccc2F)nc2nc(N)ccc12", "nM", 5010),
    ("Cc1cccc(-c2cc(F)ccc2-c2ccc3ncc(C(N)=O)n3c2)n1", "nM", 35),
    ("CC(C)c1cccc(-c2cn(C3CC(CN)C3)c3ncnc(N)c23)c1 (stereo not drawn)", "nM", 1500),
]

Using the record for "COc1cc(-c2cnc3sc(NCCc4ccc(S(N)(=O)=O)cc4)nn23)cc(OC)c1OC" , report its IC50.
160

What about "Nc1ncc(-c2ccc([C@@]34C[C@@H]3CN(CCOCC(F)(F)F)C4)cc2)cc1C(=O)N[C@H]1CC[C@H](O)CC1" ?
6700
